All values here come from patent US20160002247A1.

TARGET OR SYSTEM: Human autotaxin enzyme (Homo sapiens)
Construct: purchased R&D System
PROTOCOL: Evaluation of autotaxin inhibitor, Method B (Test Example 2): TG-mTMP fluorescence
Format: biochemical
CONDITION: Assay Method B (Test Example 2), human autotaxin; read-out: Inhibitory Activity (autotaxin enzyme inhibitory activity, IC50 class)
// IC50 lookup, one value per entry

# COMPOUND, TARGET OR SYSTEM, READING
data = [
    ("CCCCCn1c(OCCOC)cc(=O)n2cc(-c3ccc(Cl)cc3)nc12", "Human autotaxin enzyme (Homo sapiens)", "< 10 nM"),
    ("CCCCCn1c(-c2ccc(C#N)cc2)cc(=O)n2cc(-c3ccc(Cl)cc3)nc12", "Human autotaxin enzyme (Homo sapiens)", "< 10 nM"),
    ("Cc1cncc(Oc2ccc(Cn3c(C)cc(=O)n4cc(-c5ccc(Cl)cc5)nc34)cc2)n1", "Human autotaxin enzyme (Homo sapiens)", "10 to 100 nM"),
    ("Cc1cc(=O)n2cc(-c3ccc(Cl)cc3)nc2n1C(C)c1cccc(F)c1 (centres unmarked)", "Human autotaxin enzyme (Homo sapiens)", "10 to 100 nM"),
    ("CCCCCn1c(N2C[C@H]3CC[C@@H](C2)O3)cc(=O)n2cc(-c3ccc(Cl)cc3)nc12", "Human autotaxin enzyme (Homo sapiens)", "10 to 100 nM"),
]

Reported IC50, compound CCCCCn1c(N2C(C)CCC2C)cc(=O)n2cc(-c3ccc(Cl)cc3)nc12 (centres unmarked) : ____
< 10 nM

Try this compound next: CCCCCn1c(N2CCCC2)cc(=O)n2cc(-c3ccc(Cl)cc3)nc12
10 to 100 nM

Try this compound next: COC(=O)Cc1ccc(Cn2c(C)cc(=O)n3cc(-c4ccc(Cl)cc4)nc23)cc1
10 to 100 nM

----------
TARGET OR SYSTEM: Human autotaxin enzyme (Homo sapiens)
Construct: purchased R&D System
PROTOCOL: Evaluation of autotaxin inhibitor, Method C (Test Example 3): 18:0 Lyso PC, choline assay, Resorufin fluorescence
Assay type: biochemical
CONDITION: Assay Method C (Test Example 3), human autotaxin, 18:0 Lyso PC substrate; read-out: Inhibitory Activity (autotaxin enzyme inhibitory activity, IC50 class)
RECORDED ENDPOINT: IC50

A selection of reference data follows.
# COMPOUND, IC50
measured = [
    ("Cn1c(N2CCC[C@H]2C(=O)N[C@H](C(=O)O)C(C)(C)C)cc(=O)n2cc(-c3ccc(Cl)cc3)nc12", "100 to 1000 nM"),
    ("CCCCCn1c(N2CCC[C@H]2C(=O)N[C@H](C(=O)O)C(C)C)cc(=O)n2cc(-c3ccc(Cl)cc3)nc12", "< 10 nM"),
    ("CCCCCn1c(-c2ccc(S(=O)(=O)O)cc2)cc(=O)n2cc(-c3ccc(Cl)cc3)nc12", "10 to 100 nM"),
    ("CCCCCn1c(O[C@H]2C[C@@H](NC(=O)OC(C)(C)C)C2)cc(=O)n2cc(-c3ccc(Cl)cc3)nc12", "100 to 1000 nM"),
]

Quick check: IC50 on Human autotaxin enzyme (Homo sapiens), item CCCCCn1c(N2CC(C)CC(C)C2)cc(=O)n2cc(-c3ccc(Cl)cc3)nc12 (stereo not shown) ?
> 1000 nM

Try this compound next: CCCCCn1c(OC2CCN(CCN3CCOCC3)CC2)cc(=O)n2cc(-c3ccc(Cl)cc3)nc12
100 to 1000 nM

Try this compound next: CCCCCn1c(N2CCC[C@H]2C(=O)NC(C)C(=O)O)cc(=O)n2cc(-c3ccc(Cl)cc3)nc12 (stereo partly shown)
< 10 nM
